- TGT: Replicase polyprotein 1ab (Severe acute respiratory syndrome coronavirus 2)
- EXPERIMENT_DESCRIPTION: Binding affinity to SARS-CoV-2 main protease assessed as change in melting temperature by DSF assay
Entries and their ΔTm
METRIC_NAME: ΔTm (°C)

{"COMPOUND": "O=C1CCCC2=C1C(c1ccccc1)N(C(=O)CCl)c1ccc([N+](=O)[O-])cc1N2 (stereo not given)", "TGT": "Replicase polyprotein 1ab (Severe acute respiratory syndrome coronavirus 2)", "METRIC_NAME": "ΔTm", "UNITS_OF_MEASURE": "°C", "RESULT_VALUE": 5.71}
{"COMPOUND": "COc1ccc(C2C3=C(CC(C)(C)CC3=O)Nc3cc([N+](=O)[O-])ccc3N2C(=O)CCl)cc1 (stereo not given)", "TGT": "Replicase polyprotein 1ab (Severe acute respiratory syndrome coronavirus 2)", "METRIC_NAME": "ΔTm", "UNITS_OF_MEASURE": "°C", "RESULT_VALUE": -2.76}
{"COMPOUND": "CC1(C)CC(=O)C2=C(C1)Nc1cc([N+](=O)[O-])ccc1N(C(=O)CCl)C2c1ccc(OC(F)(F)F)cc1 (stereo not given)", "TGT": "Replicase polyprotein 1ab (Severe acute respiratory syndrome coronavirus 2)", "METRIC_NAME": "ΔTm", "UNITS_OF_MEASURE": "°C", "RESULT_VALUE": -1.64}
{"COMPOUND": "O=C1CCCC2=C1C(C1CCCC1)N(C(=O)CCl)c1ccc([N+](=O)[O-])cc1N2 (stereo not given)", "TGT": "Replicase polyprotein 1ab (Severe acute respiratory syndrome coronavirus 2)", "METRIC_NAME": "ΔTm", "UNITS_OF_MEASURE": "°C", "RESULT_VALUE": 6.27}
{"COMPOUND": "CC1CC(=O)C2=C(C1)Nc1cc([N+](=O)[O-])ccc1N(C(=O)CCl)C2C1CC1 (stereo not given)", "TGT": "Replicase polyprotein 1ab (Severe acute respiratory syndrome coronavirus 2)", "METRIC_NAME": "ΔTm", "UNITS_OF_MEASURE": "°C", "RESULT_VALUE": 4.66}
{"COMPOUND": "O=C1CCCC2=C1C(C1CC1)N(C(=O)CCl)c1ccc([N+](=O)[O-])cc1N2 (stereo not given)", "TGT": "Replicase polyprotein 1ab (Severe acute respiratory syndrome coronavirus 2)", "METRIC_NAME": "ΔTm", "UNITS_OF_MEASURE": "°C", "RESULT_VALUE": 4.77}
{"COMPOUND": "CC1(C)CC(=O)C2=C(C1)Nc1cc([N+](=O)[O-])ccc1N(C(=O)CCl)C2C1CCC1 (stereo not given)", "TGT": "Replicase polyprotein 1ab (Severe acute respiratory syndrome coronavirus 2)", "METRIC_NAME": "ΔTm", "UNITS_OF_MEASURE": "°C", "RESULT_VALUE": 2.72}
{"COMPOUND": "CC1(C)CC(=O)C2=C(C1)Nc1cc([N+](=O)[O-])ccc1N(C(=O)CCl)C2", "TGT": "Replicase polyprotein 1ab (Severe acute respiratory syndrome coronavirus 2)", "METRIC_NAME": "ΔTm", "UNITS_OF_MEASURE": "°C", "RESULT_VALUE": 1.85}
{"COMPOUND": "O=C1CCCC2=C1C(c1ccc(F)cc1F)N(C(=O)CCl)c1ccc([N+](=O)[O-])cc1N2 (stereo not given)", "TGT": "Replicase polyprotein 1ab (Severe acute respiratory syndrome coronavirus 2)", "METRIC_NAME": "ΔTm", "UNITS_OF_MEASURE": "°C", "RESULT_VALUE": 2.95}
{"COMPOUND": "CC1C2=C(CCCC2=O)Nc2cc([N+](=O)[O-])ccc2N1C(=O)CCl (stereo not given)", "TGT": "Replicase polyprotein 1ab (Severe acute respiratory syndrome coronavirus 2)", "METRIC_NAME": "ΔTm", "UNITS_OF_MEASURE": "°C", "RESULT_VALUE": 4.5}
{"COMPOUND": "Cc1ccc(C2C3=C(CC(C)(C)CC3=O)Nc3cc([N+](=O)[O-])ccc3N2C(=O)CCl)cc1 (stereo not given)", "TGT": "Replicase polyprotein 1ab (Severe acute respiratory syndrome coronavirus 2)", "METRIC_NAME": "ΔTm", "UNITS_OF_MEASURE": "°C", "RESULT_VALUE": 3.27}
{"COMPOUND": "O=C1CCCC2=C1C(c1ccc(OC(F)(F)F)cc1)N(C(=O)CCl)c1ccc([N+](=O)[O-])cc1N2 (stereo not given)", "TGT": "Replicase polyprotein 1ab (Severe acute respiratory syndrome coronavirus 2)", "METRIC_NAME": "ΔTm", "UNITS_OF_MEASURE": "°C", "RESULT_VALUE": 3.65}
{"COMPOUND": "CC1(C)CC(=O)C2=C(C1)Nc1cc([N+](=O)[O-])ccc1N(C(=O)CCl)C2c1ccc(C(F)(F)F)cc1 (stereo not given)", "TGT": "Replicase polyprotein 1ab (Severe acute respiratory syndrome coronavirus 2)", "METRIC_NAME": "ΔTm", "UNITS_OF_MEASURE": "°C", "RESULT_VALUE": -0.54}
{"COMPOUND": "CC1CC(=O)C2=C(C1)Nc1cc([N+](=O)[O-])ccc1N(C(=O)CCl)C2c1ccc(C(F)(F)F)cc1 (stereo not given)", "TGT": "Replicase polyprotein 1ab (Severe acute respiratory syndrome coronavirus 2)", "METRIC_NAME": "ΔTm", "UNITS_OF_MEASURE": "°C", "RESULT_VALUE": 4.02}
{"COMPOUND": "COc1ccc(C2C3=C(CC(C)CC3=O)Nc3cc([N+](=O)[O-])ccc3N2C(=O)CCl)cc1 (stereo not given)", "TGT": "Replicase polyprotein 1ab (Severe acute respiratory syndrome coronavirus 2)", "METRIC_NAME": "ΔTm", "UNITS_OF_MEASURE": "°C", "RESULT_VALUE": 3.13}
{"COMPOUND": "O=C1CCCC2=C1CN(C(=O)CCl)c1ccc([N+](=O)[O-])cc1N2", "TGT": "Replicase polyprotein 1ab (Severe acute respiratory syndrome coronavirus 2)", "METRIC_NAME": "ΔTm", "UNITS_OF_MEASURE": "°C", "RESULT_VALUE": 4.1}
{"COMPOUND": "CC1CC(=O)C2=C(C1)Nc1cc([N+](=O)[O-])ccc1N(C(=O)CCl)C2 (stereo not given)", "TGT": "Replicase polyprotein 1ab (Severe acute respiratory syndrome coronavirus 2)", "METRIC_NAME": "ΔTm", "UNITS_OF_MEASURE": "°C", "RESULT_VALUE": 2.79}
{"COMPOUND": "COC(=O)c1ccc2c(c1)NC1=C(C(=O)CCC1)C(c1ccc(C(F)(F)F)cc1)N2C(=O)CCl (stereo not given)", "TGT": "Replicase polyprotein 1ab (Severe acute respiratory syndrome coronavirus 2)", "METRIC_NAME": "ΔTm", "UNITS_OF_MEASURE": "°C", "RESULT_VALUE": 8.45}
{"COMPOUND": "O=C1CCCC2=C1C(C1CCC1)N(C(=O)CCl)c1ccc([N+](=O)[O-])cc1N2 (stereo not given)", "TGT": "Replicase polyprotein 1ab (Severe acute respiratory syndrome coronavirus 2)", "METRIC_NAME": "ΔTm", "UNITS_OF_MEASURE": "°C", "RESULT_VALUE": 5.83}
{"COMPOUND": "CC1(C)CC(=O)C2=C(C1)Nc1cc([N+](=O)[O-])ccc1N(C(=O)CCl)C2c1ccc(F)cc1F (stereo not given)", "TGT": "Replicase polyprotein 1ab (Severe acute respiratory syndrome coronavirus 2)", "METRIC_NAME": "ΔTm", "UNITS_OF_MEASURE": "°C", "RESULT_VALUE": 2.94}

FYI, the data here is from ChEMBL document CHEMBL5365412.
